- measurement_target: Histone-lysine N-methyltransferase EHMT2 (Homo sapiens) (UniProt Q96KQ7)
- Sequence (Q96KQ7 913-1193 limits assumed): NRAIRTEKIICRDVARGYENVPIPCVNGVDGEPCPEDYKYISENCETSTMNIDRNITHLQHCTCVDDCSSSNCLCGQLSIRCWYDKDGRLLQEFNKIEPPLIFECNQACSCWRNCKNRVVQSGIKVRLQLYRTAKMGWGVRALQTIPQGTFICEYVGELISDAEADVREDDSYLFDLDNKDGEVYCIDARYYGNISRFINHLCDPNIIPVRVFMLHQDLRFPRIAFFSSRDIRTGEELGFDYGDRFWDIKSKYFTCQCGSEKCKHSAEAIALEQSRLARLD
- experiment_notes: qHTS Assay for Inhibitors of Histone Lysine Methyltransferase G9a; further: on the % scale 0 is the no-effect control and ±100 the full control effect; nearly all actives have a fitted effect of over 75% in size
- measurement_conditions: G9a H3K9 monomethylation, AlphaScreen, 2 h; series mostly up to 59 µM
The whole screen tested about 350,000 compounds, of which about 31,000 (8.9%) were called active. About 15% were inconclusive and are not listed. Many of the other results were omitted from the sample, so actives are more common in it than they were.
measured_quantity: activity, negative = inhibition

In the examples that follow, each entry is paired with its recorded activity, negative = inhibition.
Value of measured activity, negative = inhibition for the entry Cc1cc(C)n2nc(C(=O)OCC(=O)N(C)CC(=O)Nc3ccc(F)cc3)nc2n1 : -2.62% [at 12.7 µM] (inactive)

For this molecule ( CCn1c(=O)c2ccccc2n(CC(=O)N2CCCc3ccccc32)c1=O ), measured activity, negative = inhibition is -7.66% [at 0.501 µM] (inactive)

***
// sample CN(C(=O)COC(=O)c1ccc(Br)o1)c1c(N)n(Cc2ccccc2)c(=O)[nH]c1=O , its activity, negative = inhibition was -30.9% [at 0.501 µM] (inactive)

// O=C(CN1CCc2ccccc2C1)Nc1cccc(S(=O)(=O)N2CCOCC2)c1 : activity, negative = inhibition value = 15.7% [at 12.7 µM] (inactive)

activity, negative = inhibition in this record for CCn1c(=O)c(C(=O)NCc2ccc3c(c2)OCO3)c(O)c2ccccc21 : 8.89% [at 0.501 µM] (inactive)
